Experiment: Minimum Cytotoxic concentration in primary rabbit kidney (PRK)
Assay type: tissue-based, Oryctolagus cuniculus
Settings: primary rabbit kidney (PRK) cells
MCC listing for selected molecules.
The reply should contain only the number, in µg/mL.

MCC for O=c1[nH]c(=O)n([C@H]2C[C@H](O)[C@@H](CO)O2)cc1/C=N/O ?
100

Param item = O=Cc1cn([C@H]2C[C@H](O)[C@@H](CO)O2)c(=O)[nH]c1=O ; retrieve measured MCC.
4
